The sequences listed here are annotated with their gcPBM binding intensity (ln).
# Tested on: PfAP2-I AP2 domain 3 (GST-tagged)
# protocol: gcPBM binding intensity (ln(normalized median fluorescence intensity)); higher = stronger DNA binding
The full ranking holds about 25,000 sequences; the median of “ln(normalized median fluorescence intensity)” is about 7.9, and the highest 2% start at about 11. Only a selection was taken, and the highest values are over-represented in it overall.
Give your answer as a number; write no unit.

Would you mind telling me what gcPBM binding intensity (ln) value was observed for AATGACATTCTTACACGTACAAAATAAAAAATAAAA [XGTACX_site6932] ?
7.89

Would you mind telling me what gcPBM binding intensity (ln) value was observed for TATTAAATATATATTACATGCAAAAAAAAAAAACAA [TGCATGCA_site705] ?
7.97

Would you mind telling me what gcPBM binding intensity (ln) value was observed for CATATATATATATGAACACACAAAAAGAATATTTCC [CACACA_site1493] ?
7.62

Would you mind telling me what gcPBM binding intensity (ln) value was observed for TTTTCTTTTTCCAAAAGTACGTAATTTAAACATTTT [XGTACX_site2066] ?
7.83

* * *

# Tested on: PfAP2-I AP2 domain 3 (GST-tagged)
# protocol: gcPBM binding intensity (ln(normalized median fluorescence intensity)); higher = stronger DNA binding
Over roughly 25,000 sequences, “ln(normalized median fluorescence intensity)” has its median near 7.9; the highest 2% begin near 11. The sample as a whole holds a higher share of the highest values than the screen did.
The sequences listed here are annotated with their gcPBM binding intensity (ln).
Give your answer as a number; write no unit.

Would you mind telling me what gcPBM binding intensity (ln) value was observed for `CTTATTTTGTTATAAGTGCATTTTTTAAAATTTCTT` ?
9.05

Would you mind telling me what gcPBM binding intensity (ln) value was observed for TGCATAAATTTATGCACACATAAAAAAAAAAAAAAA [CACACA_site2923] ?
10

Would you mind telling me what gcPBM binding intensity (ln) value was observed for ATAAAAATGGATGAATATAAAAAAAAAAAAATATAT [CACACA_negctrl_site182] ?
7.74

Would you mind telling me what gcPBM binding intensity (ln) value was observed for TAAAATAATTTATGCATACACACATATATATATATA [CACACA_site4021] ?
9.49

Would you mind telling me what gcPBM binding intensity (ln) value was observed for `AAAGAATTATATAAGGTGCACGAATGTTTCTTTAAT` ?
11

Would you mind telling me what gcPBM binding intensity (ln) value was observed for CAAGCACAGAAACACACACACACACCGACACAGACA [CACACA_site4359] ?
8.11

Would you mind telling me what gcPBM binding intensity (ln) value was observed for CATATAAGACAAAAGGTGCAATTTTAATGCTTTTAT [GTGCAC_site9432] ?
9.99

* * *

The sequences listed here are annotated with their gcPBM binding intensity (ln).
# System: PfAP2-I AP2 domain 3 (GST-tagged)
# protocol: gcPBM binding intensity (ln(normalized median fluorescence intensity)); higher = stronger DNA binding
Whole data set: some 25,000 sequences, median “ln(normalized median fluorescence intensity)” near 7.9, cut for the highest 2% near 11. For the sample, the highest values were picked, then their nearest neighbours and some sequences at random.

Would you mind telling me what gcPBM binding intensity (ln) value was observed for TTCCTTTGTTGTCGTTGTACTTATATGGTTATAATT [XGTACX_site3082] ?
8.29

Would you mind telling me what gcPBM binding intensity (ln) value was observed for TTTTCCATAAGAATTACACACAGAAAGGATAAGTAT [CACACA_site105] ?
8.04

Would you mind telling me what gcPBM binding intensity (ln) value was observed for TAAATATATATCATCACACACACATACATAAATATA [CACACA_site183] ?
7.72

* * *

# Test system: PfAP2-I AP2 domain 3 (GST-tagged)
# protocol: gcPBM binding intensity (ln(normalized median fluorescence intensity)); higher = stronger DNA binding
In all, about 25,000 sequences were measured (“ln(normalized median fluorescence intensity)”: median about 7.9, highest 2% from about 11 on). Only a selection was taken, and the highest values are over-represented in it overall.
quantityKind: gcPBM binding intensity (ln)
Give your answer as a number; write no unit.

[
  {
    "sequenceChain": "AATAAATTCATGATAGTGCAAAAATTATTTTTGTTA",
    "measuredNumber": 9.49
  },
  {
    "sequenceChain": "AAATATTCATAGTATACACACATTTATTTATAACCA [CACACA_site6502]",
    "measuredNumber": 7.88
  },
  {
    "sequenceChain": "TTGTTTGATATCTTTGTCACGAAAAAAATATATATA [GTGCAC_negctrl_site54]",
    "measuredNumber": 7.83
  },
  {
    "sequenceChain": "TTAATTTATTTATGCACACATATATAATTACCCATA [CACACA_site682]",
    "measuredNumber": 10.2
  },
  {
    "sequenceChain": "TTTGTTTTTCATAGTGCACACATAACCAAAAATAGT [CACACA_site9030]",
    "measuredNumber": 11.3
  },
  {
    "sequenceChain": "ATTTACCCTTGCCATGCACACTTTTTTATAGAAAAT [CACACA_site5857]",
    "measuredNumber": 8.95
  }
]

Would you mind telling me what gcPBM binding intensity (ln) value was observed for ATAAATCCATGGGTAGTGCGCATTTTTTTTTTTTTT [GTGCAC_site9732] ?
9.09

Would you mind telling me what gcPBM binding intensity (ln) value was observed for TTTTTTTCAATATTTGCACACGATTATAATATTTAA [CACACA_site2237] ?
9.41

Would you mind telling me what gcPBM binding intensity (ln) value was observed for ATGAAATATGCACAGTGTACTTTTATGAGGAACATA [XGTACX_site426] ?
9.04

Would you mind telling me what gcPBM binding intensity (ln) value was observed for AAAAAAAAAATATATTGTACAATATTGTAGCTATAT [XGTACX_site7180] ?
7.67

* * *

# System: PfAP2-I AP2 domain 3 (GST-tagged)
# protocol: gcPBM binding intensity (ln(normalized median fluorescence intensity)); higher = stronger DNA binding
Over roughly 25,000 sequences, “ln(normalized median fluorescence intensity)” has its median near 7.9; the highest 2% begin near 11. Only a selection was taken, and the highest values are over-represented in it overall.
Please enter met where gcPBM binding intensity (ln) is greater than or equal to 8, and not met where it is lower.

Some solved entries appear below for comparison.
[
  {
    "sequenceChain": "CTCATTTTGTTAATGGTGCAAAAAAAAAAAAAAAAA",
    "assignedLabel": "met"
  },
  {
    "sequenceChain": "GATTAACAACATATTAGTACATATATTATATATATA [XGTACX_site7646]",
    "assignedLabel": "met"
  },
  {
    "sequenceChain": "AAAACACAATTTATTACACACATATATTATAGATTA [CACACA_site6780]",
    "assignedLabel": "not met"
  }
]

Now turn to the next sequence.
Check if gcPBM binding intensity (ln) >= 8 (inclusive). Item: AAAAAAAAAAAAATGGTGCAACTTTGTTAAAGGAAA [GTGCAC_site9950]
met

* * *

# Test system: PfAP2-I AP2 domain 3 (GST-tagged)
# protocol: gcPBM binding intensity (ln(normalized median fluorescence intensity)); higher = stronger DNA binding
The full ranking holds about 25,000 sequences; the median of “ln(normalized median fluorescence intensity)” is about 7.9, and the highest 2% start at about 11. What follows is part of a selection rich in the highest values, with near analogues and random picks from the rest.
quantityKind: gcPBM binding intensity (ln)
Give your answer as a number; write no unit.

The cases that follow already have their gcPBM binding intensity (ln) on record.
[
  {
    "sequenceChain": "AAAATATAAAATAATGCACACATAAACAAAAAATCA [CACACA_site8382]",
    "targetDesc": "PfAP2-I AP2 domain 3 (GST-tagged)",
    "quantityKind": "gcPBM binding intensity (ln)",
    "measuredNumber": 10.8
  },
  {
    "sequenceChain": "AAAATATAATATAATGCACACATAAAACAAAAAAAA [CACACA_site8989]",
    "targetDesc": "PfAP2-I AP2 domain 3 (GST-tagged)",
    "quantityKind": "gcPBM binding intensity (ln)",
    "measuredNumber": 10.7
  },
  {
    "sequenceChain": "ATGGATTATTTTTAAACATGCAGTAGTGATGAAAAA [TGCATGCA_site346]",
    "targetDesc": "PfAP2-I AP2 domain 3 (GST-tagged)",
    "quantityKind": "gcPBM binding intensity (ln)",
    "measuredNumber": 8.36
  },
  {
    "sequenceChain": "ATATATATATATATATGTACTAATTAATATTTCGAG [XGTACX_site580]",
    "targetDesc": "PfAP2-I AP2 domain 3 (GST-tagged)",
    "quantityKind": "gcPBM binding intensity (ln)",
    "measuredNumber": 9.45
  },
  {
    "sequenceChain": "AATATTATATATATGGGTACTAATTCCTTTAATTTC [XGTACX_site102]",
    "targetDesc": "PfAP2-I AP2 domain 3 (GST-tagged)",
    "quantityKind": "gcPBM binding intensity (ln)",
    "measuredNumber": 7.45
  },
  {
    "sequenceChain": "AAATTATAATATAATACACACATAAAAAAAAAATCA [CACACA_site3634]",
    "targetDesc": "PfAP2-I AP2 domain 3 (GST-tagged)",
    "quantityKind": "gcPBM binding intensity (ln)",
    "measuredNumber": 7.76
  },
  {
    "sequenceChain": "AATATAATATAATGCACACATAAACAAAAAAAAAAT [CACACA_site1304]",
    "targetDesc": "PfAP2-I AP2 domain 3 (GST-tagged)",
    "quantityKind": "gcPBM binding intensity (ln)",
    "measuredNumber": 10.9
  },
  {
    "sequenceChain": "ATTATATTTATGTTGGTGCATTATACATGAAATTTA",
    "targetDesc": "PfAP2-I AP2 domain 3 (GST-tagged)",
    "quantityKind": "gcPBM binding intensity (ln)",
    "measuredNumber": 11.5
  },
  {
    "sequenceChain": "AGGCACGTGTTATATACACACATAATCAAATAAACT [CACACA_site7852]",
    "targetDesc": "PfAP2-I AP2 domain 3 (GST-tagged)",
    "quantityKind": "gcPBM binding intensity (ln)",
    "measuredNumber": 8.11
  }
]

Then there is this sequence:
Would you mind telling me what gcPBM binding intensity (ln) value was observed for TATAATAATAATTATACATGCATGAATATTTATATG [TGCATGCA_site811] ?
7.67

Value source: the supplement of paper PMC11417369
